Where these numbers come from: patent US20260209208A1

SYSTEM TESTED: Myt1 Kinase (Homo sapiens, UniProt Q99640)
Construct: endogenous in cells
Sequence (Q99640 whole entry): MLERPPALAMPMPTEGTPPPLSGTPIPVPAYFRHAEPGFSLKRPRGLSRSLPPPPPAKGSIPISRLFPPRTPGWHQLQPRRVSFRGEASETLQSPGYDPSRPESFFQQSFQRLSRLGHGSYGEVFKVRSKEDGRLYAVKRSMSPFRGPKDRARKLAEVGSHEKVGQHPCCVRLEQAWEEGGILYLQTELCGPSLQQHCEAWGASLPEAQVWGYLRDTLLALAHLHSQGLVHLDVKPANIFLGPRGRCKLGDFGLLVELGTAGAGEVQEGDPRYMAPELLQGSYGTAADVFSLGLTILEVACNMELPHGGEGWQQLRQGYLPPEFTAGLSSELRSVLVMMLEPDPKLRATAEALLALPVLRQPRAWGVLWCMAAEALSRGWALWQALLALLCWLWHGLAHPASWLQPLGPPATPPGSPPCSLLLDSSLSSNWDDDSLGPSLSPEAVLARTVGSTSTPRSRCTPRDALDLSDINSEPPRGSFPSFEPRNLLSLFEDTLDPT
EXPERIMENT SUMMARY: AlphaLISA SureFire Ultra Human Phospho-CDK1 (Thr14) target engagement assay in DAOY cells
CONDITION INFO: 4 h incubation, Cdk1 phosphorylated on threonine 14, read-out: TE Myt1 Kinase (AlphaLISA)

{"COMPOUND": "Cc1ccc(O)cc1-n1nc(-c2cccc(Br)c2)c(C(N)=O)c1N", "EC50": "> 1000 nM"}
{"COMPOUND": "Cc1ccc2[nH]ncc2c1-n1nc(-c2cc3ccccc3o2)c(C(N)=O)c1N", "EC50": "> 1000 nM"}
{"COMPOUND": "Cc1ccc(O)c(C)c1-n1nc(-c2cc3ccccc3o2)c(C(N)=O)c1N [Compound 72]", "EC50": "≤ 250 nM"}
{"COMPOUND": "Cc1ccc(O)c(C)c1-n1nc(-c2ccccc2)c(C(N)=O)c1N", "EC50": "≤ 250 nM"}
{"COMPOUND": "Cc1ccc(O)c(C)c1-n1nc(-c2ccc(Cl)o2)c(C(N)=O)c1N", "EC50": "≤ 250 nM"}
{"COMPOUND": "C=C(C)c1coc(-c2nn(-c3c(C)ccc(O)c3C)c(N)c2C(N)=O)c1", "EC50": "≤ 250 nM"}
{"COMPOUND": "C/C=C/c1coc(-c2nn(-c3c(C)ccc(O)c3C)c(N)c2C(N)=O)c1", "EC50": "≤ 250 nM"}
{"COMPOUND": "Cc1ccc(O)c(C)c1-n1nc(-c2ccc(C#N)o2)c(C(N)=O)c1N", "EC50": "≤ 250 nM"}

----------
SYSTEM TESTED: recombinant human PMYT-1 (Myt1 kinase) (Homo sapiens)
Construct: full length PMYT-1 was expressed by baculovirus in insect cells using a N-terminal GST tag
EXPERIMENT SUMMARY: LanthaScreen Europium (Eu) Kinase Binding Assay for Myt1 kinase
CONDITION INFO: TR-FRET tracer 178 displacement, GST-tagged full length PMYT-1, 60 min, room temperature; mean IC50; read-out: LANTHA Kinase Binding for PMyt1
REPORTED METRIC: IC50

{"COMPOUND": "Cc1ccc(O)c(C)c1-n1nc(-c2ccc(C#N)o2)c(C(N)=O)c1N [Compound 101]", "SYSTEM TESTED": "recombinant human PMYT-1 (Myt1 kinase) (Homo sapiens)", "REPORTED METRIC": "IC50", "VALUE MEASURED": "10 to 100 nM"}
{"COMPOUND": "Cc1ccc(O)c(C)c1-n1nc(-c2cc(Br)co2)c(C(N)=O)c1N [Compound 79]", "SYSTEM TESTED": "recombinant human PMYT-1 (Myt1 kinase) (Homo sapiens)", "REPORTED METRIC": "IC50", "VALUE MEASURED": "≤ 10 nM"}
{"COMPOUND": "Cc1ccc2[nH]ncc2c1-n1nc(-c2cc3ccccc3o2)c(C(N)=O)c1N [Compound 77]", "SYSTEM TESTED": "recombinant human PMYT-1 (Myt1 kinase) (Homo sapiens)", "REPORTED METRIC": "IC50", "VALUE MEASURED": "10 to 100 nM"}
{"COMPOUND": "Cc1ccc(O)cc1-n1nc(-c2ccc(Cl)cc2)c(C(N)=O)c1N [Compound 4]", "SYSTEM TESTED": "recombinant human PMYT-1 (Myt1 kinase) (Homo sapiens)", "REPORTED METRIC": "IC50", "VALUE MEASURED": "100 to 250 nM"}
{"COMPOUND": "Cc1ccc(O)c(C)c1-n1nc(-c2cc(-c3ccncc3)co2)c(C(N)=O)c1N [Compound 95]", "SYSTEM TESTED": "recombinant human PMYT-1 (Myt1 kinase) (Homo sapiens)", "REPORTED METRIC": "IC50", "VALUE MEASURED": "≤ 10 nM"}
{"COMPOUND": "Cc1ccc(O)c(C)c1-n1nc(-c2cnn(C)c2)c(C(N)=O)c1N [Compound 121]", "SYSTEM TESTED": "recombinant human PMYT-1 (Myt1 kinase) (Homo sapiens)", "REPORTED METRIC": "IC50", "VALUE MEASURED": "10 to 100 nM"}
{"COMPOUND": "Cc1ccc(O)c(C)c1-n1nc(-c2cc3ccccc3o2)c(C(N)=O)c1N (single isomer, unassigned) [Compound 107]", "SYSTEM TESTED": "recombinant human PMYT-1 (Myt1 kinase) (Homo sapiens)", "REPORTED METRIC": "IC50", "VALUE MEASURED": "≤ 10 nM"}
{"COMPOUND": "Cc1ccc(O)cc1-n1nc(-c2ccc(F)cc2)c(C(N)=O)c1N [Compound 2]", "SYSTEM TESTED": "recombinant human PMYT-1 (Myt1 kinase) (Homo sapiens)", "REPORTED METRIC": "IC50", "VALUE MEASURED": "100 to 250 nM"}
